# Test system: Leishmania major
# METHOD: Antileishmanial activity against Leishmania major IR-173 promastigotes assessed as inhibition of parasite growth incubated for 48 hrs by resazurin dye based assay
# Assay type: functional, organism-based
# TEST SETTINGS: IR-173, 48 h
As shown below, each of these compounds has a reported IC50 value.
Just the number in µM, nothing appended.

CCCCCCc1cn(CCCN2C(=O)CN(/N=C/c3ccc([N+](=O)[O-])o3)C2=O)nn1: 0.48
O=C1CN(/N=C/c2ccc([N+](=O)[O-])o2)C(=O)N1CCCCCn1cc(-c2ccc(F)cc2)nn1: 0.98
O=C1CN(/N=C/c2ccc([N+](=O)[O-])o2)C(=O)N1CCCCCn1cc(CSc2ccccc2)nn1: 1.7
CCCCCCc1cn(CCCCCCN2C(=O)CN(/N=C/c3ccc([N+](=O)[O-])o3)C2=O)nn1: 5.3
CCCCCc1ccc(-c2cn(CCCCCCN3C(=O)CN(/N=C/c4ccc([N+](=O)[O-])o4)C3=O)nn2)cc1: 2.19
O=C1CN(/N=C/c2ccc([N+](=O)[O-])o2)C(=O)N1CCCn1cc(CSc2ccccc2)nn1: 0.67

## Input Looking for the measured IC50 of O=Cc1ccc([N+](=O)[O-])o1 , can you help?
## Output 7.28

## Input Please give the result for CCCCCc1cn(CCCCCCN2C(=O)CN(/N=C/c3ccc([N+](=O)[O-])o3)C2=O)nn1 too.
## Output 0.27

====

# METHOD: Cytotoxicity against HEK293 cells assessed as inhibition of cell growth incubated for 48 hrs by resazurin dye based assay
# Format: toxicity
# TEST SETTINGS: human
TEST READOUT: IC50 at 48 h (µM)
Just the number in µM, nothing appended.

The cases that follow already have their IC50 at 48 h on record.
CCCCCc1cn(CCCCCCN2C(=O)CN(/N=C/c3ccc([N+](=O)[O-])o3)C2=O)nn1: 15.5
Cc1ccc(-c2cn(CCCCCCN3C(=O)CN(/N=C/c4ccc([N+](=O)[O-])o4)C3=O)nn2)cc1: 31.1

## Input Looking for the measured IC50 at 48 h of CCCCCc1ccc(-c2cn(CCCCCN3C(=O)CN(/N=C/c4ccc([N+](=O)[O-])o4)C3=O)nn2)cc1 , can you help?
## Output 9.73

====

As shown below, each of these compounds has a reported IC50 at 48 h value.
# METHOD: in vitro
# TEST SETTINGS: African green monkey, Vero cells
Just the number in µM, nothing appended.

The cases that follow already have their IC50 at 48 h on record.
CCCCCc1cn(CCCCCN2C(=O)CN(/N=C/c3ccc([N+](=O)[O-])o3)C2=O)nn1: 72.8
O=C1CN(/N=C/c2ccc([N+](=O)[O-])o2)C(=O)N1CCCn1cc(CSc2ccccc2)nn1: 3.86
O=Cc1ccc([N+](=O)[O-])o1: 23.2

Next compound, IC50 at 48 h to be filled in.
## Input Looking for the measured IC50 at 48 h of CCCCc1cn(CCCCCN2C(=O)CN(/N=C/c3ccc([N+](=O)[O-])o3)C2=O)nn1 , can you help?
## Output 31.6

====

As shown below, each of these molecules has a reported Ratio IC50 value.
# METHOD: Selectivity index, ratio of IC50 for antileishmanial activity against Leishmania major IR-173 promastigotes to IC50 for antileishmanial activity against Leishmania major IR-173 amastigote infected in human THP-1 cells assessed as static activity
# Type: functional
A bare number is all that is needed in reply.

The cases that follow already have their Ratio IC50 on record.
CCCCCc1cn(CCCN2C(=O)CN(/N=C/c3ccc([N+](=O)[O-])o3)C2=O)nn1: 0.8
NC(=O)N/N=C/c1ccc([N+](=O)[O-])o1 [NITROFURAZONE]: 0.12
CCCCCCc1cn(CCCN2C(=O)CN(/N=C/c3ccc([N+](=O)[O-])o3)C2=O)nn1: 0.7
O=C1OCCN1/N=C/c1ccc([N+](=O)[O-])o1 [FURAZOLIDONE]: 0.1

## Input Looking for the measured Ratio IC50 of O=Cc1ccc([N+](=O)[O-])o1 , can you help?
## Output 0.87

## Input Please give the result for CCCCc1cn(CCCN2C(=O)CN(/N=C/c3ccc([N+](=O)[O-])o3)C2=O)nn1 too.
## Output 0.2
